B1: NELF-E aptamer (parent)
chain: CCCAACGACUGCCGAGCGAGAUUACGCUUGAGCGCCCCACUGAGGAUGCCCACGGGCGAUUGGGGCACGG

# Variants of: B1
# experimental details: HiTS-RAP
# measurement parameters: with NELF-E (Drosophila)
Criterion: Kd strictly under 9 nM. Met: Condition met. Not met: Condition not met.

# alteration, label
measured = [
    ("A15G U41G", "Condition met"),
    ("G62U", "Condition met"),
    ("A4U A39G", "Condition not met"),
    ("A24G A43U", "Condition not met"),
    ("A21U U23G", "Condition met"),
    ("U22G C25G", "Condition met"),
    ("A4U U61A", "Condition not met"),
    ("A19G A39G", "Condition not met"),
    ("G16U G26U", "Condition met"),
    ("U10A U23C", "Condition met"),
    ("G14U C37U", "Condition not met"),
    ("U10G G44C", "Condition not met"),
    ("C6G G20U", "Condition met"),
    ("C9G U60G", "Condition met"),
    ("C6G C36U", "Condition met"),
    ("A4U U28A", "Condition met"),
    ("A4G C50U", "Condition not met"),
    ("G14A G63A", "Condition not met"),
    ("U10G C53G", "Condition met"),
    ("U23G C51U", "Condition met"),
    ("G11A G20U", "Condition met"),
    ("A5G C36U", "Condition met"),
    ("U41G A59G", "Condition not met"),
    ("A24G G26A", "Condition met"),
    ("A4U U23G", "Condition met"),
    ("C9G U29C", "Condition met"),
    ("A8U C25G", "Condition met"),
    ("C12G A15G", "Condition met"),
    ("C12G C37G", "Condition met"),
    ("G20U U22G", "Condition met"),
    ("U29G A31G", "Condition met"),
    ("A5U U41A", "Condition not met"),
    ("A4G C66U", "Condition met"),
    ("U10G A67U", "Condition met"),
    ("C9G A21G", "Condition met"),
    ("G16U C66U", "Condition met"),
    ("G7U U61A", "Condition not met"),
    ("A5U U28C", "Condition met"),
    ("G14U C17G", "Condition met"),
    ("U22G C53U", "Condition met"),
    ("C17A", "Condition met"),
    ("A8U U41C", "Condition not met"),
    ("A43C", "Condition not met"),
    ("A24G C37A", "Condition not met"),
    ("U10G C12G", "Condition met"),
]
